procedure_text: Cmax in Balb/c nude mouse at 5 mg/kg, po
Assay type: ADME, organism-based
Parameters: dose 5 mg/kg, route oral
stated_conditions: in vivo
measure: Cmax

>  <smiles_string>
O=C(c1ccc(-c2nc3ccc(F)cc3o2)cc1)N1CCN(C(=O)C2(O)CC2)CC1

>  <result_value>
8.4 µM

$$$$

###

procedure_text: Inhibition of ketoreductase (unknown origin)
Design: species or system Homo sapiens
pIC50: −log10 of the molar value.

>  <compound>
O=C(c1ccc(-c2ccccc2)cc1)N1CCN(C(=O)C2CCCO2)CC1 (racemic)

>  <pIC50>
5.74

$$$$

###

procedure_text: Intrinsic clearance in human liver microsomes
Type: ADME, Microsome
stated_conditions: read-out: CLH

>  <smiles_string>
O=C(c1ccc(-c2nc3ccccc3o2)cc1)N1CCN(C(=O)C2(O)CC2)CC1

>  <microsomal CLint>
7 µL/min/mg

$$$$

###

procedure_text: Cmax in Sprague-Dawley rat at 5 mg/kg, po
Format: ADME, organism-based
Parameters: dose 5 mg/kg, route oral
stated_conditions: in vivo

>  <smiles_string>
O=C(c1ccc(-c2nc3ccc(F)cc3o2)cc1)N1CCN(C(=O)C2(O)CC2)CC1

>  <Cmax / µM>
33

$$$$

###

procedure_text: AUC in mouse at mg/kg, po
Type: ADME, organism-based
Parameters: concentration or dose not given beside the values
stated_conditions: in vivo
measure: AUC (µM·h)

>  <smiles_string>
Cn1ncc2ccc(-c3ccc(C(=O)N4CCN(C(=O)C5(O)CC5)CC4)cc3)cc21

>  <unit_descriptor>
µM·h

>  <result_value>
9.8

$$$$
>  <smiles_string>
O=C(c1ccc(-c2ccc3cnccc3c2)cc1)N1CCN(C(=O)C2(O)CC2)CC1

>  <unit_descriptor>
µM·h

>  <result_value>
0.1

$$$$
>  <smiles_string>
O=C(c1ccc(-c2ccc(Cl)cc2F)cc1)N1CCN(C(=O)C2(O)CC2)CC1

>  <unit_descriptor>
µM·h

>  <result_value>
47.6

$$$$
>  <smiles_string>
O=C(c1ccc(-c2nc3ccccc3o2)cc1)N1CCN(C(=O)C2(O)CC2)CC1

>  <unit_descriptor>
µM·h

>  <result_value>
28.7

$$$$
>  <smiles_string>
O=C(c1ccc(-c2nc3ccc(F)cc3o2)cc1)N1CCN(C(=O)C2(O)CC2)CC1

>  <unit_descriptor>
µM·h

>  <result_value>
46

$$$$

###

assayed_system: Fatty acid synthase (Homo sapiens, UniProt P49327)
Sequence (P49327 whole entry): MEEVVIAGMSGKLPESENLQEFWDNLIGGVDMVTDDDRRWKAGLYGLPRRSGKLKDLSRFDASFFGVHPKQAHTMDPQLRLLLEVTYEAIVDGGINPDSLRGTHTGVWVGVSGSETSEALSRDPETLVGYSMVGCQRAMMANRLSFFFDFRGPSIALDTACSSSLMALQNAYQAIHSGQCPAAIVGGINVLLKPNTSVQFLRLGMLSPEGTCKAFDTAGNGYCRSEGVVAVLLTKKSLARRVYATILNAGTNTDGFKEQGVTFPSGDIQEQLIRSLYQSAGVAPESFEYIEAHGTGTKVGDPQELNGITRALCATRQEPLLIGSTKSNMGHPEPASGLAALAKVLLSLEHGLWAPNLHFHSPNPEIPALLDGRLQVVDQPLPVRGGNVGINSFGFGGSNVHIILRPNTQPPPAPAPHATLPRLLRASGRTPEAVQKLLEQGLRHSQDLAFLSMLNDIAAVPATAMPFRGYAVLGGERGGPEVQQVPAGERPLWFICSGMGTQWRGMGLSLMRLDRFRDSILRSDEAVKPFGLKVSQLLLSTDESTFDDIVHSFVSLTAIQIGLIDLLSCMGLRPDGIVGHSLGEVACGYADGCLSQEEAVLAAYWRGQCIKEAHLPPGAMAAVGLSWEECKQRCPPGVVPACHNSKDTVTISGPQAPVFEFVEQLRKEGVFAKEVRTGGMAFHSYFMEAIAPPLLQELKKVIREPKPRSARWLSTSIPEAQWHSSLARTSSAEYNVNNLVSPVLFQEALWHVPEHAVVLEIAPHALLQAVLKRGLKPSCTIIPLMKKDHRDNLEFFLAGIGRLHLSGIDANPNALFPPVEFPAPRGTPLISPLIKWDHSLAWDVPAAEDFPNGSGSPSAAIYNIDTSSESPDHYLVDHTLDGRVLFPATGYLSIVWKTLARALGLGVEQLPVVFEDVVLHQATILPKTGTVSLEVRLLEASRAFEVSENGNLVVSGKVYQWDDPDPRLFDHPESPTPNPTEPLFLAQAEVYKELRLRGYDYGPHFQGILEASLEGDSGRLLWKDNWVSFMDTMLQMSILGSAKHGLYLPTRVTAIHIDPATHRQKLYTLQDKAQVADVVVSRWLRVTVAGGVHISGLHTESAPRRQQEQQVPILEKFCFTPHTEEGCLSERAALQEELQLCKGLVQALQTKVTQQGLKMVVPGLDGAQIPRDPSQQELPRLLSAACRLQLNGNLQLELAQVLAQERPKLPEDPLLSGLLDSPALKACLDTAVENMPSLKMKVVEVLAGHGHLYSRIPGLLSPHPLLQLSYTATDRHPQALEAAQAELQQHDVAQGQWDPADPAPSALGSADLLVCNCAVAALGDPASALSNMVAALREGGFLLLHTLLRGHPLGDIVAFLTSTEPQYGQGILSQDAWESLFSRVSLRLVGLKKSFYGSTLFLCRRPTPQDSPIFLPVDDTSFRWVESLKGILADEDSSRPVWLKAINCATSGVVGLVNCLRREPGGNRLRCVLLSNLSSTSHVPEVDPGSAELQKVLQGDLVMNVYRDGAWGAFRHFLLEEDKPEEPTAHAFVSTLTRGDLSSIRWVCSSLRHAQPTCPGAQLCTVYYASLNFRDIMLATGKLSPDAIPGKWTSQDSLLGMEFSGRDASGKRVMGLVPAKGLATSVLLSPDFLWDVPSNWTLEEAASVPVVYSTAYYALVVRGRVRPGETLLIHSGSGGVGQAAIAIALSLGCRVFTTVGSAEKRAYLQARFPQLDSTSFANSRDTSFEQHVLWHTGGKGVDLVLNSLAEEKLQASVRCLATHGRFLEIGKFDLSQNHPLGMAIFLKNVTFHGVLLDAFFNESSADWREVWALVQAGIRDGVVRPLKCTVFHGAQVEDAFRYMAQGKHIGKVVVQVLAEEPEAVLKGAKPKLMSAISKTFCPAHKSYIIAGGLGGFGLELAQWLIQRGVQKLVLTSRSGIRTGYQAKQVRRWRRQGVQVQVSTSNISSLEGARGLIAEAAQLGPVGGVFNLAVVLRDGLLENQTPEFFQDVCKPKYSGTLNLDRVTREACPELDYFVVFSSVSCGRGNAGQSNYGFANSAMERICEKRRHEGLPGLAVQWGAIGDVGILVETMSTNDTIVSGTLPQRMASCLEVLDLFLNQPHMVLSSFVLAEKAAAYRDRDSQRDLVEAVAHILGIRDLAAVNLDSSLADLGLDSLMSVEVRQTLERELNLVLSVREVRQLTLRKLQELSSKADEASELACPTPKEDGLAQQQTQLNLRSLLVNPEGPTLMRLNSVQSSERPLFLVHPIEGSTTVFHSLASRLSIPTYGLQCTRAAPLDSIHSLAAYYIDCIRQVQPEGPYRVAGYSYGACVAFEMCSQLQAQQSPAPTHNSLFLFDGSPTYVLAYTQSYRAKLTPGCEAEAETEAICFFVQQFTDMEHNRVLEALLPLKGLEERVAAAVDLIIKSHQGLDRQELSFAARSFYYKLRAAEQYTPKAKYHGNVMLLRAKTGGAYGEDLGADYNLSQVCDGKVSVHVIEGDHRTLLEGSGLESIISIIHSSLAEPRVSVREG
procedure_text: Inhibition of FASN in human BT474 cells preincubated for 1 hr followed by [14C]-acetate addition and measured after 4 hrs by scintillation counting assay
Assay type: cell-based
measure: log10(IC50) (log10 of the value in nM)

>  <smiles_string>
O=C(c1ccc(-c2ccc(Cl)cc2F)cc1)N1CCN(C(=O)C2(O)CC2)CC1

>  <log10(IC50)>
2.53

$$$$
>  <smiles_string>
O=C(c1ccc(-c2ccc3ccccc3n2)cc1)N1CCN(C(=O)C2(O)CC2)CC1

>  <log10(IC50)>
2.00

$$$$
>  <smiles_string>
O=C(c1ccc(-c2cc(Cl)ccc2F)cc1)N1CCN(C(=O)C2(O)CC2)CC1

>  <log10(IC50)>
2.20

$$$$
>  <smiles_string>
O=C(c1ccc(-c2ccc(F)cc2Cl)cc1)N1CCN(C(=O)C2(O)CC2)CC1

>  <log10(IC50)>
3.70

$$$$
>  <smiles_string>
Cn1c(-c2ccc(C(=O)N3CCN(C(=O)C4(O)CC4)CC3)cc2)cc2ccccc21

>  <log10(IC50)>
1.85

$$$$
>  <smiles_string>
O=C(c1ccc(-c2ccc3cnccc3c2)cc1)N1CCN(C(=O)C2(O)CC2)CC1

>  <log10(IC50)>
1.04

$$$$
>  <smiles_string>
O=C(c1ccc(-c2ccc3scnc3c2)cc1)N1CCN(C(=O)C2(O)CC2)CC1

>  <log10(IC50)>
1.04

$$$$
>  <smiles_string>
O=C(c1ccc(-c2ccc3[nH]ccc3c2)cc1)N1CCN(C(=O)C2(O)CC2)CC1

>  <log10(IC50)>
1.26

$$$$
>  <smiles_string>
O=C(c1ccc(-c2ccc3ocnc3c2)cc1)N1CCN(C(=O)C2(O)CC2)CC1

>  <log10(IC50)>
2.41

$$$$
>  <smiles_string>
O=C(c1ccc(-c2nc3ccc(Cl)cc3o2)cc1)N1CCN(C(=O)C2(O)CC2)CC1

>  <log10(IC50)>
2.02

$$$$
>  <smiles_string>
O=C(c1ccc(-c2nc3ccc(F)cc3o2)cc1)N1CCN(C(=O)C2(O)CC2)CC1

>  <log10(IC50)>
1.95

$$$$
>  <smiles_string>
O=C(c1ccc(-c2nc3cc(F)ccc3o2)cc1)N1CCN(C(=O)C2(O)CC2)CC1

>  <log10(IC50)>
1.79

$$$$
>  <smiles_string>
O=C(c1ccc(-c2nc3cc(Cl)ccc3o2)cc1)N1CCN(C(=O)C2(O)CC2)CC1

>  <log10(IC50)>
2.13

$$$$
>  <smiles_string>
O=C(c1ccc(-c2cnc3ccccc3c2)cc1)N1CCN(C(=O)C2(O)CC2)CC1

>  <log10(IC50)>
1.08

$$$$
>  <smiles_string>
O=C(c1ccc(-c2nc3ccccc3s2)cc1)N1CCN(C(=O)C2(O)CC2)CC1

>  <log10(IC50)>
1.83

$$$$
>  <smiles_string>
Cn1ccc2cc(-c3ccc(C(=O)N4CCN(C(=O)C5(O)CC5)CC4)cc3)ccc21

>  <log10(IC50)>
1.28

$$$$
>  <smiles_string>
O=C(c1ccc(-c2nc3ccccc3o2)cc1)N1CCN(C(=O)C2(O)CC2)CC1

>  <log10(IC50)>
2.00

$$$$

###

procedure_text: Inhibition of thioesterase (unknown origin)
Set-up: species or system Homo sapiens
measure: IC50

>  <compound>
O=C(c1ccc(-c2ccccc2)cc1)N1CCN(C(=O)C2CCCO2)CC1 (racemic)

>  <result_value>
> 50 µM

$$$$

###

procedure_text: Inhibition of enoyl reductase (unknown origin)
Set-up: species or system Homo sapiens

>  <compound>
O=C(c1ccc(-c2ccccc2)cc1)N1CCN(C(=O)C2CCCO2)CC1 (racemic)

>  <IC50>
> 50 µM

$$$$

###

procedure_text: Oral bioavailability in Sprague-Dawley rat at 5 mg/kg
Format: ADME, organism-based
stated_conditions: in vivo
measure: bioavailability

>  <smiles_string>
O=C(c1ccc(-c2nc3ccc(F)cc3o2)cc1)N1CCN(C(=O)C2(O)CC2)CC1

>  <result_value>
84%

$$$$

###

Tested on: PC-3
procedure_text: Antiproliferative activity against human PC3 cells after 96 hrs by MTT assay
Format: functional, cell-based
stated_conditions: PC-3, 96 h
pIC50: −log10 of the molar value.
So basically: pIC50 at 8 or higher? That is met. Lower than 8? That is not met.

>  <smiles_string>
O=C(c1ccc(-c2ccc(Cl)cc2F)cc1)N1CCN(C(=O)C2(O)CC2)CC1

>  <assayed_system>
PC-3

>  <label>
not met

$$$$
>  <smiles_string>
O=C(c1ccc(-c2ccc3[nH]ccc3c2)cc1)N1CCN(C(=O)C2(O)CC2)CC1

>  <assayed_system>
PC-3

>  <label>
met

$$$$
>  <smiles_string>
O=C(c1ccc(-c2cc(Cl)ccc2F)cc1)N1CCN(C(=O)C2(O)CC2)CC1

>  <assayed_system>
PC-3

>  <label>
not met

$$$$
>  <smiles_string>
O=C(c1ccc(-c2nc3cc(Cl)ccc3o2)cc1)N1CCN(C(=O)C2(O)CC2)CC1

>  <assayed_system>
PC-3

>  <label>
not met

$$$$
>  <smiles_string>
O=C(c1ccc(-c2nc3ccc(Cl)cc3o2)cc1)N1CCN(C(=O)C2(O)CC2)CC1

>  <assayed_system>
PC-3

>  <label>
not met

$$$$
>  <smiles_string>
O=C(c1ccc(-c2ccc3ccccc3n2)cc1)N1CCN(C(=O)C2(O)CC2)CC1

>  <assayed_system>
PC-3

>  <label>
met

$$$$
>  <smiles_string>
Cn1c(-c2ccc(C(=O)N3CCN(C(=O)C4(O)CC4)CC3)cc2)cc2ccccc21

>  <assayed_system>
PC-3

>  <label>
not met

$$$$

###

procedure_text: Kinetic solubility of compound at pH 7.4
Type: physicochemical
stated_conditions: buffer, read-out: Kinetic_solubility
Hi, to clarify the labels: Criterion met covers solubility kinetic from 60 µM upward, Criterion not met covers anything below 60 µM.

>  <smiles_string>
O=C(c1ccc(-c2nc3ccc(F)cc3o2)cc1)N1CCN(C(=O)C2(O)CC2)CC1

>  <label>
Criterion not met

$$$$
>  <smiles_string>
Cn1ncc2ccc(-c3ccc(C(=O)N4CCN(C(=O)C5(O)CC5)CC4)cc3)cc21

>  <label>
Criterion met

$$$$
>  <smiles_string>
O=C(c1ccc(-c2nc3ccccc3o2)cc1)N1CCN(C(=O)C2(O)CC2)CC1

>  <label>
Criterion met

$$$$
>  <smiles_string>
O=C(c1ccc(-c2cc(Cl)ccc2F)cc1)N1CCN(C(=O)C2(O)CC2)CC1

>  <label>
Criterion not met

$$$$
>  <smiles_string>
Cn1c(-c2ccc(C(=O)N3CCN(C(=O)C4(O)CC4)CC3)cc2)cc2ccccc21

>  <label>
Criterion not met

$$$$
>  <smiles_string>
O=C(c1ccc(-c2cnc3cccnc3c2)cc1)N1CCN(C(=O)C2(O)CC2)CC1

>  <label>
Criterion met

$$$$
>  <smiles_string>
O=C(c1ccc(-c2nc3cc(F)ccc3o2)cc1)N1CCN(C(=O)C2(O)CC2)CC1

>  <label>
Criterion not met

$$$$
>  <smiles_string>
O=C(c1ccc(-c2ccc3ocnc3c2)cc1)N1CCN(C(=O)C2(O)CC2)CC1

>  <label>
Criterion met

$$$$
>  <smiles_string>
O=C(c1ccc(-c2nc3cc(Cl)ccc3o2)cc1)N1CCN(C(=O)C2(O)CC2)CC1

>  <label>
Criterion not met

$$$$
